// reported pIC50 for each item listed
molecular target: CIB1 and αIIb interaction (CIB1-GST : F-αIIb peptide) (Homo sapiens); construct: made in house; host or cells: BL-21 plus RIL cells (E. coli); assay: FP assay, 1536-well qHTS format (primary and confirmatory screen); format: binding; conditions: qHTS FP screen hits, Table S2; read-out: IC50
Convention used: pIC50 is expressed as -log10 of the molar concentration.

Consider the following illustrative entries.
>>> measured_number("O=C(Cc1ccc(Cl)c(Cl)c1)Nc1ccc(S(=O)(=O)Nc2cnccn2)cc1.O=C(O)C(F)(F)F [NCGC00248365-02]")
4.75
>>> measured_number("CCOC(=O)c1ccc(O)c2ncc(-c3ccc(C(=N)N)cc3)cc12.O=C(O)C(F)(F)F [NCGC00241050-01]")
4.35

Prompt line: // fetch pIC50 for OC[C@H]1O[C@@H](Oc2ccc(O)c3cccc(O)c23)[C@H](O)[C@@H](O)[C@@H]1O [NCGC00385147-01] ; system: CIB1 and αIIb interaction (CIB1-GST : F-αIIb peptide) (Homo sapiens)
Response line: 4.50

Prompt line: // fetch pIC50 for O=C(O)C(F)(F)F.O=C1CCCC2=C1C1(CCOCC1)N=C(Nc1nc3ccccc3o1)N2 [NCGC00188584-01] ; system: CIB1 and αIIb interaction (CIB1-GST : F-αIIb peptide) (Homo sapiens)
Response line: 4.80

Prompt line: // fetch pIC50 for Cl.O=C1c2c(O)ccc(O)c2C(=O)c2c(NCCNCCO)ccc(NCCNCCO)c21 [NCGC00015693-04] ; system: CIB1 and αIIb interaction (CIB1-GST : F-αIIb peptide) (Homo sapiens)
Response line: 4.60

Prompt line: // fetch pIC50 for Cc1cc(/N=N/c2ccc(S(=O)(=O)Nc3ccccn3)cc2)c(N)cc1O [NCGC00356068-01] ; system: CIB1 and αIIb interaction (CIB1-GST : F-αIIb peptide) (Homo sapiens)
Response line: 4.45

Prompt line: // fetch pIC50 for O=C(Nc1ccc(S(=O)(=O)N2CCOCC2)cc1)c1cc(Cl)ccc1NS(=O)(=O)c1ccc(Cl)s1 [NCGC00249417-02] ; system: CIB1 and αIIb interaction (CIB1-GST : F-αIIb peptide) (Homo sapiens)
Response line: 4.39

---

// reported Curve Class for each item listed
Target: CIB1 and αIIb interaction (CIB1-GST : F-αIIb peptide) (Homo sapiens)
Construct: made in house; host or cells: BL-21 plus RIL cells (E. coli)
Sequence (Q99828 1-191): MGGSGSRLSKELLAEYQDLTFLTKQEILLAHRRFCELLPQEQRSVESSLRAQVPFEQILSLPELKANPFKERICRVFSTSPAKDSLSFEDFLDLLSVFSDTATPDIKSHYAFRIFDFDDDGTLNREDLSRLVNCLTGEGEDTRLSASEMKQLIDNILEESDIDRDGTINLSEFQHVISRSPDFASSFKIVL
Experiment: FP assay, 1536-well qHTS format (primary and confirmatory screen)
Format: binding
Details: qHTS primary screen hits, Table S2; negative sign = inhibitory curve
Answer with a bare number; do not write a unit.

>>> measured_number("N#CCc1cc(-c2ccc(F)c(F)c2)nn1-c1nc(C(=O)O)cs1.O=C(O)C(F)(F)F")
-2.4
>>> measured_number("Cc1ccnc(N(C)C(=S)N2CCN(c3cccc(C(F)(F)F)c3)CC2)c1.O=C(O)C(F)(F)F")
-2.4
>>> measured_number("O=Cc1c(-c2ccccc2)no[n+]1[O-]")
-2.2
>>> measured_number("O=C(Cc1ccc(Cl)c(Cl)c1)Nc1ccc(S(=O)(=O)Nc2nncs2)cc1.O=C(O)C(F)(F)F")
-1.4
>>> measured_number("O=C1C=CC(=O)N1c1cccc(Br)c1")
-1.2
>>> measured_number("Cc1cc(C)nc(NC(=S)N2CCN(c3cccc4ccncc34)CC2)c1.O=C(O)C(F)(F)F")
-2.4
>>> measured_number("CN(C)CCc1c[nH]c2ccc(O)cc12")
-2.4

# context switch: different molecule, same Curve Class
Prompt line: State its Curve Class for this molecule: O=C1CCCC2=C1C(c1n[nH]cc1Br)N=C(Nc1nc3ccccc3o1)N2 (centres unmarked)
Response line: -2.4
